Reference source: patent US20110142842A1

biological target: HLA-A*0201 (human, UniProt A*02:01); experiment: REVEAL MHC binding assay (ProImmune)
Give % Pass/fail control for every item shown.

See these solved cases before continuing.
[
  {
    "BINDER": "SMSEEVTYA [Peptide ID 56 SMSEEVTYA (CLL-1)]",
    "% Pass/fail control": "158 % of pass/fail control"
  },
  {
    "BINDER": "VLWHWLLRT [Peptide ID 105 VLWHWLLRT (CD19)]",
    "% Pass/fail control": "337 % of pass/fail control"
  },
  {
    "BINDER": "FIYGVILTA [Peptide ID 60 FIYGVILTA (TCR_TV)]",
    "% Pass/fail control": "149 % of pass/fail control"
  }
]

Hey, can you go through the list below and give me % Pass/fail control for every item?
1. VLQELNVTV [Peptide ID 34 VLQELNVTV (PR3)]
2. TLQPPWVSV [Peptide ID 26 TLQPPWVSV (CD64)]

1: 170 % of pass/fail control; 2: 197 % of pass/fail control

Hey, can you go through the list below and give me % Pass/fail control for every item?
1. YLHVALDLL [Peptide ID 107 YLHVALDLL (MPO)]
2. FVANAIIHL [Peptide ID 111 FVANAIIHL (CD52)]
3. ALASVLLAL [Peptide ID 73 ALASVLLAL (PR3)]

1. 278 % of pass/fail control
2. 276 % of pass/fail control
3. 139 % of pass/fail control

Hey, can you go through the list below and give me % Pass/fail control for every item?
1. FLQPLFLVV (Modified peptide) [Peptide ID 141 FLQPLFLVV (HA-1, modified peptide)]
2. ELSEDSSNV [Peptide ID 103 ELSEDSSNV (CD18)]
3. LLFIVVLTL [Peptide ID 119 LLFIVVLTL (FLT3)]
4. ALAGVLAIL [Peptide ID 30 ALAGVLAIL (MPO)]
5. GLYQGLSTA [Peptide ID 41 GLYQGLSTA (TCR_TV)]
6. YLGYTVTWL [Peptide ID 93 YLGYTVTWL (CD11a)]
7. SMLDDLRNV [Peptide ID 24 SMLDDLRNV (CD18)]

["270 % of pass/fail control", "139 % of pass/fail control", "114 % of pass/fail control", "210 % of pass/fail control", "107 % of pass/fail control", "239 % of pass/fail control", "251 % of pass/fail control"]

Hey, can you go through the list below and give me % Pass/fail control for every item?
1. GLYQGLSTV (Modified peptide) [Peptide ID 140 GLYQGLSTV (TCR_TV, modified peptide)]
2. KIVEWDWKI [Peptide ID 109 KIVEWDWKI (CD48)]
3. YLIFCLCSL [Peptide ID 50 YLIFCLCSL (CD19)]
4. KLGGDLLRA [Peptide ID 129 KLGGDLLRA (CD18)]
5. LLWAGALAV (Modified peptide) [Peptide ID 148 LLWAGALAV (CD33, modified peptide)]
6. KLLLALAGV [Peptide ID 67 KLLLALAGV (MPO)]
7. KMIMNSLSL [Peptide ID 96 KMIMNSLSL (CD20)]

1. 214 % of pass/fail control
2. 236 % of pass/fail control
3. 71.2 % of pass/fail control
4. 229 % of pass/fail control
5. 272 % of pass/fail control
6. 216 % of pass/fail control
7. 213 % of pass/fail control
